Assay: Log KOW (octanol/water partition coefficient) by HPLC, OECD Method 117
Assay type: physicochemical
Value Kind: chromatographic logP
Reply briefly: the number, and no unit.

[Q] # return recorded chromatographic logP for entry F/C(=C\C(F)(F)F)N(C(F)(F)F)C(F)(F)F
[A] 4.12

---

Assay: Log KOW (octanol/water partition coefficient) by HPLC, OECD Method 117
Assay type: physicochemical
Settings: octanol/water; HPLC, OECD Method 117; average value for the E/Z product mixtures of Examples 1-3; read-out: Log KOW (octanol/water partition coefficient measured by HPLC)
Value Kind: chromatographic logP
Lab note: jot down the number only; don't add units.

[Q] Specify measured chromatographic logP for C=C(F)N1C(F)(F)C(F)(F)OC(F)(F)C1(F)F [Example 6] .
[A] 4.33

# credit: patent US10738001B2
